Values from PubChem BioAssay AID1851

target: Cytochrome P450 3A4 (Homo sapiens) (UniProt P08684); assay: Cytochrome panel assay with activity outcomes; conditions: recombinant CYP, pro-luciferin dealkylation, luminescence, p450-cyp3a4; series mostly up to 57.1 µM
Sequence (P08684 whole entry, looked up): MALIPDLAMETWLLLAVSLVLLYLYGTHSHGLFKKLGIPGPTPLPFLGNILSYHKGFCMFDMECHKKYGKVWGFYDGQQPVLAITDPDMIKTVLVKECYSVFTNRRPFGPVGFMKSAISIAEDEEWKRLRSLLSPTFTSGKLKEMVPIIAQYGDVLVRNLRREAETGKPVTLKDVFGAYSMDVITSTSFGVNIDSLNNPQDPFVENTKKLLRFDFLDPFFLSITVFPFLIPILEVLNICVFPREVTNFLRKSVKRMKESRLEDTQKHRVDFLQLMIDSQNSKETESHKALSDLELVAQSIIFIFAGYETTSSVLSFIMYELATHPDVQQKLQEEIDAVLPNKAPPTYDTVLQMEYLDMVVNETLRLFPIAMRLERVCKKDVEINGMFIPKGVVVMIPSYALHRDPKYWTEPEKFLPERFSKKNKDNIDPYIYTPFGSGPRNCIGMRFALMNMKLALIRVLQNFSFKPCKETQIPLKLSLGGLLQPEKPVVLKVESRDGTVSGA
The campaign covered roughly 16,000 compounds. About 5,100 (32%) were called active. Inconclusive results (about 25%) are left out. The call rests on the fitted dose curve; in most records, active means well fitted curve in the direction sought with a large enough effect; inconclusive means small, poorly fitted or top-dose-only effect, or effect the other way; inactive means no such curve, though single readings can be large or run the other way. The list shows a part of the results.
Log the outcome using a class from active, inactive

Reference set (2 entries):
CCc1c2c(nc3cccc(C(C)C)c13)-c1cccc(=O)n1C2 : active
CCC1CC(CSc2ncn[nH]2)OC1=O (stereo not drawn) : inactive

Attention now shifts to the item below.
Could you kindly confirm the outcome this assay logged for `Cc1ccc(-n2nc3c(c2NC(=O)c2cccs2)CSC3)cc1` ?
active
